# pIC50 values compiled below
- ASSAYED_TARGET: JAK1-JH2 domain (Homo sapiens)
- Construct: JAK1-JH2 domain or TYK2-JH2 domain enzyme in assay buffer
- Sequence (P23458 583-855 limits assumed): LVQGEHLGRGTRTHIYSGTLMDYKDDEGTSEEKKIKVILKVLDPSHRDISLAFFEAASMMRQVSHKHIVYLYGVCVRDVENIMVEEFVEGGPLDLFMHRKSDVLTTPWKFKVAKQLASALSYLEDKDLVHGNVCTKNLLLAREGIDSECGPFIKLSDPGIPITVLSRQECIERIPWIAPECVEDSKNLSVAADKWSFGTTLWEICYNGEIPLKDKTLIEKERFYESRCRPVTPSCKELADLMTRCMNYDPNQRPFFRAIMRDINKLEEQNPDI
- METHOD: Binding activity test for JH2 domain of JAK1 (Tb-antibody/tracer FRET)
- TEST_CONTEXT: JH2 domain enzyme; 60 min at 25°C, then 4°C overnight; read-out: JAK1 JH2 Binding IC50
Please report pIC50 as the negative decimal logarithm of the molar concentration, giving only the number.

In the examples that follow, each entry is paired with its recorded pIC50.
COMPOUND: [2H]C([2H])([2H])NC(=O)c1cnc(NC(=O)C2CC2)cc1Nc1cnn2ccc(C(F)(F)F)c(OC)c12
VALUE_OBSERVED: 8.01
--
COMPOUND: [2H]C([2H])([2H])NC(=O)c1cnc(NC(=O)C2CC2)cc1Nc1cnn2ccc(C(C)C(F)(F)F)c(OC)c12 (centres unmarked) [Example 9]
VALUE_OBSERVED: 8.06
--
COMPOUND: [2H]C([2H])([2H])OC(c1ccc2c(c(Nc3cc(NC(=O)C4CC4)ncc3C(=O)OC)nn2C([2H])([2H])[2H])c1OC)C(F)F (centres unmarked)
VALUE_OBSERVED: 7.73
--
COMPOUND: [2H]C([2H])([2H])NC(=O)c1cnc(NC(=O)C2CC2)cc1Nc1cnn2ccc([C@H](OC([2H])([2H])[2H])C(F)(F)F)c(OC)c12
VALUE_OBSERVED: 8.13
--
COMPOUND: CCn1nc(Nc2cc(NC(=O)C3CC3)ncc2C(=O)OC)c2c(OC)c(C(OC)C(F)(F)F)ccc21 (single isomer, unassigned) [Example 66B]
VALUE_OBSERVED: 7.04

Consider the additional compound presented here.
Return the recorded pIC50 value; entry: CCC(=O)c1cnc(NC(=O)C2CC2)cc1Nc1ccc2cn[nH]c2c1OC [Example 196, reference compound]
7.50

Recorded values, source patent EP4813463A2.
